- assay-remarks: Clearance in CD-1 IGS mouse at 2 mg/kg, iv by LC-MS/MS analysis
- Assay type: ADME, organism-based
- condition-details: in vivo
measure: clearance (mL/min/kg)

CC(=O)N1CCN([C@H]2CCC[C@@H](NC(=O)c3cc4c(F)ccc(C)c4[nH]3)C2)CC1 : 43
CC(=O)N1CCN(c2cccc(NC(=O)c3cc4c(F)ccc(C)c4[nH]3)c2)CC1 : 36

---

- assay-remarks: Volume of distribution in Sprague-Dawley rat at 1 mg/kg, iv by LC-MS/MS analysis
- Type: ADME, organism-based
- condition-details: in vivo, read-out: Vdss
measure: Vd (L/kg)
Report the figure in L/kg without appending any unit label.

Ask | Which Vd reading was recorded for the molecule `Cc1ccc(F)c2cc(C(=O)N[C@@H]3CCC[C@H](N4CCN5C(=O)CC[C@H]5C4)C3)[nH]c12` ?
Reply | 2.7

---

- assay-remarks: Volume of distribution in Sprague-Dawley rat at 2 mg/kg, iv by LC-MS/MS analysis
- Type: ADME, organism-based
- condition-details: in vivo, read-out: Vdss
measure: Vd (L/kg)

A. CC(=O)N1CCN(c2cccc(NC(=O)c3cc4c(F)ccc(C)c4[nH]3)c2)CC1
B. CC(=O)N1CCN([C@H]2CCC[C@@H](NC(=O)c3cc4c(F)ccc(C)c4[nH]3)C2)CC1
Ask | Thinking about recorded Vd values, which is higher, A or B ? Indicate which entry you chose by stating its label.
Reply | B
(B: 4.1 L/kg, A: 0.65 L/kg)

---

- assay-remarks: Stability in rat hepatocytes assessed as intrinsic clearance at 0.5 uM measured after 60 mins by LC/MS/MS analysis
- Assay type: ADME, cell-based, Hepatocyte
- condition-details: read-out: CLH
measure: CLint scaled at 0.5 µM (mL/min/kg)

Worked cases, answers included:
CC(=O)N1CC[C@H]2CN([C@H]3CCC[C@@H](NC(=O)c4cc5c(F)ccc(C)c5[nH]4)C3)C[C@H]21 : 265
Cc1ccc(F)c2cc(C(=O)N[C@@H]3CCC[C@H](N4CCN5C(=O)CC[C@H]5C4)C3)[nH]c12 : 69
Cc1ccc(F)c2cc(C(=O)N[C@@H]3CCC[C@H](N4CC[C@H](N(C)S(C)(=O)=O)C4)C3)[nH]c12 : 137

A. CC(=O)N1CCN([C@H]2CCC[C@@H](NC(=O)c3cc4c(F)ccc(C)c4[nH]3)C2)CC1
B. CC(=O)N1CC[C@H]2[C@@H]1CCN2[C@H]1CCC[C@@H](NC(=O)c2cc3c(F)ccc(C)c3[nH]2)C1
C. CC(=O)N1CCN(c2cccc(NC(=O)c3cc4c(F)ccc(C)c4[nH]3)c2)CC1
Ask | Reorder the items by CLint scaled at 0.5 µM, least to greatest. Ranked list of labels, please, in the requested order.
Reply | B, A, C

---

- assay-remarks: Apparent permeability across apical to basal side in human Caco-2 cells at 5 uM measured after 2 hrs by LC-MS/MS analysis
- Assay type: ADME, cell-based
- condition-details: caco-2, 2 h
Reported Papp values follow for various compounds

CC(=O)N1CC[C@H]2[C@@H]1CCN2[C@H]1CCC[C@@H](NC(=O)c2cc3c(F)ccc(C)c3[nH]2)C1 : < 1 10^-6 cm/s
Cc1ccc(F)c2cc(C(=O)N[C@@H]3CCC[C@H](N4CCN5C(=O)CC[C@H]5C4)C3)[nH]c12 : 4.3 10^-6 cm/s
CC(=O)N1CC[C@H]2CN([C@H]3CCC[C@@H](NC(=O)c4cc5c(F)ccc(C)c5[nH]4)C3)C[C@H]21 : < 1 10^-6 cm/s

Ask | Item under review: `CC(=O)N1CCN(c2cccc(NC(=O)c3cc4c(F)ccc(C)c4[nH]3)c2)CC1` . Reported Papp?
Reply | 6.3 10^-6 cm/s

Ask | # lookup: Papp of CC(=O)N1CCN([C@H]2CCC[C@@H](NC(=O)c3cc4c(F)ccc(C)c4[nH]3)C2)CC1 [EZM-0414]
Reply | 3.2 10^-6 cm/s

Ask | GET /values?readout=Papp&item= `Cc1ccc(F)c2cc(C(=O)N[C@@H]3CCC[C@H](N4CC[C@H](N(C)S(C)(=O)=O)C4)C3)[nH]c12`
Reply | 3.2 10^-6 cm/s
